- assay-explanation: RP, Waters ACQUITY UPLC BEH C18, 100 × 1 mm, 1.7 µm, 50 °C, 0.3 mL/min, estimated dead time 0.17 min; A: water + 0.1% formic acid + 20 mM ammonium formate; B: methanol + 0.1% formic acid + 20 mM ammonium formate; gradient (min/%B) 0/0 15/100 21/100 22/0 30/0
- details: stereoisomer not certain
reported-endpoint: LC retention time (min)

Record summary for COC(=O)C(c1ccccc1Cl)N1CCc2sccc2C1 (stereo not given) : reported LC retention time = 15.4

Record summary for COc1ccc2c(c1)c(CC(=O)O)c(C)n2C(=O)c1ccc(Cl)cc1 : reported LC retention time = 15.4

(I) CC(C)CCCC(C)C1CCC2C3CC=C4CC(O)CCC4(C)C3CCC12C (stereo not given)
(II) O=S(=O)(O)c1ccc2ccccc2c1
(III) CC12CCC3=C4CCC(=O)C=C4CCC3C1CCC2(O)CC#N (stereo not given)
Reorder: LC retention time, max to min. Arrange the labels as the request states and list them. I, III, II
(I: 21.4 min, III: 12.6 min, II: 8.66 min)

====

- assay-explanation: RP, Waters ACQUITY UPLC BEH C18, 100 × 1 mm, 1.7 µm, 50 °C, 0.3 mL/min, estimated dead time 0.17 min; A: water + 0.1% formic acid + 20 mM ammonium formate; B: methanol + 0.1% formic acid + 20 mM ammonium formate; gradient (min/%B) 0/0 15/100 21/100 22/0 30/0
- details: stereoisomer not certain
reported-endpoint: LC retention time (min)

Record summary for O=C(O)CC1(C(=O)O)CCCCC1 : reported LC retention time = 9.9

Record summary for CC(COc1ccccc1Cc1ccccc1)N1CCCCC1 (centres undefined) : reported LC retention time = 13.1

Record summary for CCN(CC)C(=O)SCc1ccccc1Cl : reported LC retention time = 15.9

Record summary for CC(C)(C)c1cc(-n2nc3ccc(Cl)cc3n2)c(O)c(C(C)(C)C)c1 : reported LC retention time = 10.2

Record summary for CC1=C2C(=O)C3C(CC=C4CC(O)CCC43C)C2CCC12OC1CC(C)CNC1C2C (centres undefined) : reported LC retention time = 11.7

Record summary for CN(C)c1nc(=O)n(C2CCCCC2)c(=O)n1C : reported LC retention time = 11.7

(a) O=S(=O)(O)c1ccccc1
(b) COc1ccc(CCN(C)CCCC(C#N)(c2ccc(OC)c(OC)c2)C(C)C)cc1OC (centres undefined)
(c) Clc1ccccn1
Reorder: LC retention time, max to min. Arrange the labels as the request states and list them. b, c, a

====

- assay-explanation: RP, Waters ACQUITY UPLC BEH C18, 100 × 1 mm, 1.7 µm, 50 °C, 0.3 mL/min, estimated dead time 0.17 min; A: water + 0.1% formic acid + 20 mM ammonium formate; B: methanol + 0.1% formic acid + 20 mM ammonium formate; gradient (min/%B) 0/0 15/100 21/100 22/0 30/0
- details: stereoisomer not certain
reported-endpoint: LC retention time (min)

Worked cases, LC retention time given:
Record summary for CN(C1CCCCC1)C1CCCCC1 [N-Methyl-dicyclohexylamine] : reported LC retention time = 9.22

Record summary for CNC(=O)N(C)c1nnc(C(F)(F)F)s1 [Thiazafluron] : reported LC retention time = 11.8

(a) COCCCNc1nc(NC(C)C)nc(SC)n1 [Methoprothryne]
(b) CC(O)C(=O)Nc1c(I)c(C(=O)NC(CO)CO)c(I)c(C(=O)NC(CO)CO)c1I (configuration not stated) [Iopamidol]
# return whichever of a and b has the smaller LC retention time Please identify the chosen entry by its label. b
(b: 3.66 min, a: 13.1 min)

(a) CNCCCC(C#N)(c1ccc(OC)c(OC)c1)C(C)C (configuration not stated) [D617]
(b) O=P(OCC(Cl)CCl)(OCC(Cl)CCl)OCC(Cl)CCl (configuration not stated) [Tris(2,3-dichloropropyl) phosphate]
(c) Clc1cccc(Cl)c1NC1=NCCN1 [Clonidine]
Number of compounds to sort: 3. Sort criterion: LC retention time, ascending. Arrange the labels as the request states and list them. c, a, b
(c: 7.02 min, a: 10.8 min, b: 15.6 min)

(A) Cc1cc2n[nH]nc2cc1C [5,6-Dimethyl-1,1,1-benzotriazol]
(B) CC=C1CC2(CO)OC2(C)C(=O)OCC2=CC[N+]3([O-])CCC(OC1=O)C23 (configuration not stated) [Erucifoline N-oxide]
# return whichever of A and B has the smaller LC retention time Please identify the chosen entry by its label. B

====

- assay-explanation: RP, Waters ACQUITY UPLC BEH C18, 100 × 1 mm, 1.7 µm, 50 °C, 0.3 mL/min, estimated dead time 0.17 min; A: water + 0.1% formic acid + 20 mM ammonium formate; B: methanol + 0.1% formic acid + 20 mM ammonium formate; gradient (min/%B) 0/0 15/100 21/100 22/0 30/0
- details: stereoisomer not certain
reported-endpoint: LC retention time (min)

Record summary for CC1CCC2(C(=O)O)CCC3(C)C(=CCC4C5(C)CCC(O)C(C)(C)C5CCC43C)C2C1C (centres undefined) : reported LC retention time = 18.5

Record summary for CCNc1nc(=S)nc(NC(C)(C)C)[nH]1 : reported LC retention time = 11.9

(1) CC(=O)C1CCC2C3CC=C4CC(O)CCC4(C)C3CCC12C (centres undefined)
(2) CC1OC(OCC2OC(Oc3c(-c4ccc(O)c(O)c4)oc4cc(O)cc(O)c4c3=O)C(O)C(O)C2O)C(O)C(O)C1O (centres undefined)
# return whichever of 1 and 2 has the smaller LC retention time Please identify the chosen entry by its label. 2

====

- assay-explanation: RP, Phenomenex Synergi Polar-RP, 100 × 3 mm, 2.5 µm, 40 °C, 0.4 mL/min, estimated dead time 1.1 min; A: water + 1 mM ammonium fluoride; B: methanol + 1 mM ammonium fluoride; C: acetonitrile; D: 50% isopropanol + 50% acetone; gradient (min/%B/%C/%D) 0/5/0/0 2/5/0/0 8/95/0/0 12/80/15/0 19/25/70/0 19.5/0/25/70 21.5/0/25/70 22.5/0/25/0 23/5/0/0
- details: stereoisomer not certain
reported-endpoint: LC retention time (min)

Record summary for CCOC(=O)C1=C(C)NC(C)=C(C(=O)OC)C1c1cccc([N+](=O)[O-])c1 (centres undefined) : reported LC retention time = 11.2

Record summary for NC(=O)c1ccccc1C(=O)O : reported LC retention time = 2.24

Record summary for O=c1[nH]c(Cl)c(Cl)cc1Cl : reported LC retention time = 9.23

(P) O=C(O)Cc1ccc(S(=O)(=O)O)cc1
(Q) O=S(=O)(O)CCC(F)(F)C(F)(F)C(F)(F)C(F)(F)C(F)(F)C(F)(F)F
(R) O=S(=O)(O)NC1CCCCC1 [Cyclamate]
Number of compounds to sort: 3. Sort criterion: LC retention time, ascending. Arrange the labels as the request states and list them. P, R, Q

====

- assay-explanation: RP, Waters ACQUITY UPLC BEH C18, 100 × 1 mm, 1.7 µm, 50 °C, 0.3 mL/min, estimated dead time 0.17 min; A: water + 10 mM ammonium bicarbonate; B: 10% water + 90% methanol + 10 mM ammonium bicarbonate; gradient (min/%B) 0/0 15/100 21/100 22/0 30/0
- details: stereoisomer not certain
reported-endpoint: LC retention time (min)

Worked cases, LC retention time given:
Record summary for S=c1[nH]c2ccccc2s1 : reported LC retention time = 8.11

Record summary for CC1(C)CON(Cc2ccccc2Cl)C1=O : reported LC retention time = 13.9

(P) CCCN(CCOc1c(Cl)cc(Cl)cc1Cl)C(N)=O
(Q) CC1(C)CC(=O)CC(C)(C)N1
Given P and Q , report the one with the higher recorded LC retention time. Please identify the chosen entry by its label. P
(P: 16.2 min, Q: 7.87 min)

====

- assay-explanation: RP, Waters ACQUITY UPLC BEH C18, 100 × 1 mm, 1.7 µm, 50 °C, 0.3 mL/min, estimated dead time 0.17 min; A: water + 0.1% formic acid + 20 mM ammonium formate; B: methanol + 0.1% formic acid + 20 mM ammonium formate; gradient (min/%B) 0/0 15/100 21/100 22/0 30/0
- details: stereoisomer not certain
reported-endpoint: LC retention time (min)

Record summary for Cn1sccc1=O [2-Methyl-4-isothiazolin-3-one] : reported LC retention time = 3.3

(a) CC(=O)OCC(=O)C1(O)CCC2C3CCC4=CC(=O)CCC4(C)C3C(O)CC21C (stereo unspecified) [Hydrocortisonacetate]
(b) NC(Cc1cnc[nH]1)C(=O)N1CCCC1C(=O)O (stereo unspecified) [His-Pro]
(c) CCCCC(CC)COP(=O)(OCC(CC)CCCC)OCC(CC)CCCC (stereo unspecified) [Tris(2-Ethylhexyl) phosphate]
(d) CC(C)NCC(O)COc1ccc(C(=O)O)cc1 (stereo unspecified) [Bisoprolol_M3]
Number of molecules to sort: 4. Sort criterion: LC retention time, ascending. Arrange the labels as the request states and list them. b, d, a, c
(b: 2.6 min, d: 6.96 min, a: 13.4 min, c: 19.9 min)
